- ASSAYED_SYSTEM: NRAS G12C (Homo sapiens (Human), UniProt P01111+P62937, G12C)
- Sequence (P01111 whole entry G12C): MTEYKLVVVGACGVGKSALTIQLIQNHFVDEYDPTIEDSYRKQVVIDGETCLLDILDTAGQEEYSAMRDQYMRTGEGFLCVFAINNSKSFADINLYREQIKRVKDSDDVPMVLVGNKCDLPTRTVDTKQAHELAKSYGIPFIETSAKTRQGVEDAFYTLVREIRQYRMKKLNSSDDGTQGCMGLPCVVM
- Sequence (P62937 whole entry): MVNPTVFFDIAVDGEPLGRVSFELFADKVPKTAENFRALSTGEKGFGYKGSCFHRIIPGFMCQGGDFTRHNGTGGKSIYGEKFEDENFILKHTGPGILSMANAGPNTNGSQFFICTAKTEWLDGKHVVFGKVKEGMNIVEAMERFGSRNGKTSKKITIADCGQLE
- ASSAY_PROCEDURE: Ras-Raf disruption/FRET/MOA assay, NRAS G12C
- Format: biochemical
- ASSAY_SETUP: read-out: NRAS G12C FRET data IC50
ENDPOINT_NAME: IC50

Here's what some known entries look like.
CCn1c(-c2cnccc2COC)c2c3cc(ccc31)-c1cc(O)cc(c1)C[C@H](NC(=O)[C@H](C(C)C)N(C)C(=O)CCN(C)C(=O)[C@H]1CN1)C(=O)N1CCC[C@H](N1)C(=O)OCC(C)(C)C2 (single isomer, unassigned) [Example 41] :: < 10 nM
CCn1c(-c2cnccc2COC)c2c3cc(ccc31)-c1cc(O)cc(c1)C[C@H](NC(=O)[C@H](C(C)C)N(C)C(=O)[C@H]1CCN(C(=O)[C@H]3CN3)C1)C(=O)N1CCC[C@H](N1)C(=O)OCC(C)(C)C2 [Example 1] :: < 10 nM

Need IC50, item CCn1c(-c2cnccc2COC)c2c3cc(ccc31)-c1cc(O)cc(c1)C[C@H](NC(=O)[C@H](C(C)C)N(C)C(=O)c1ccc(NC(=O)[C@@H]3CN3)cn1)C(=O)N1CCC[C@H](N1)C(=O)OCC(C)(C)C2 [Example 46]
100 to 1000 nM

Quick one: CCn1c(-c2cnccc2COC)c2c3cc(ccc31)-c1cccc(c1)C[C@H](NC(=O)[C@H](C(C)C)N1CC[C@H](CN=C=Nc3ccc(OC)cc3)C1)C(=O)N1CCC[C@H](N1)C(=O)OCC(C)(C)C2 [Example 81]
1000 to 10000 nM

Quick one: CCn1c(-c2cnccc2COC)c2c3cc(ccc31)-c1cc(O)cc(c1)C[C@H](NC(=O)[C@H](C(C)C)N(C)C(=O)C1CN(C(=O)[C@H]3CN3)C1)C(=O)N1CCC[C@H](N1)C(=O)OCC(C)(C)C2 [Example 5]
< 10 nM

Quick one: CCn1c(-c2cnccc2COC)c2c3cc(ccc31)-c1cc(O)cc(c1)C[C@H](NC(=O)[C@H](C(C)C)N(C)C(=O)N1CCCN(C(=O)[C@@H]3CN3)CC1)C(=O)N1CCC[C@H](N1)C(=O)OCC(C)(C)C2 [Example 45]
10 to 100 nM

Quick one: CCn1c(-c2cnccc2COC)c2c3cc(ccc31)-c1cc(O)cc(c1)C[C@H](NC(=O)[C@H](C(C)C)N(C)C(=O)N1CCCN(C(=O)[C@H]3CN3)CC1)C(=O)N1CCC[C@H](N1)C(=O)OCC(C)(C)C2 [Example 44]
10 to 100 nM

Quick one: CCn1c(-c2cccnc2[C@H](C)OC)c2c3cc(ccc31)-c1cc(O)cc(c1)C[C@H](NC(=O)[C@H](C(C)C)N1CC[C@@]3(CCC(C(=O)[C@@H]4N[C@@H]4C4CC4)C3)C1=O)C(=O)N1CCC[C@H](N1)C(=O)OCC(C)(C)C2 (some centres unmarked) [Example 128]
10 to 100 nM

Quick one: CCn1c(-c2cnccc2COC)c2c3cc(ccc31)-c1cc(O)cc(c1)C[C@H](NC(=O)[C@@H](CN(C)C(=O)[C@H]1CN1)C(C)C)C(=O)N1CCC[C@H](N1)C(=O)OCC(C)(C)C2 [Example 99]
> 10000 nM

Quick one: CCn1c(-c2cnccc2COC)c2c3cc(ccc31)-c1cc(O)cc(c1)C[C@H](NC(=O)[C@H](C(C)C)N(C)C(=O)C1CCN(C(=O)[C@H]3CN3)CC1)C(=O)N1CCC[C@H](N1)C(=O)OCC(C)(C)C2 [Example 3]
10 to 100 nM

Quick one: CCn1c(-c2cnccc2COC)c2c3cc(ccc31)-c1cc(O)cc(c1)C[C@H](NC(=O)[C@H](C(C)C)N(C)C(=O)C1CN(C(=O)[C@@H]3CN3)C1)C(=O)N1CCC[C@H](N1)C(=O)OCC(C)(C)C2 [Example 6]
10 to 100 nM

Quick one: CCn1c(-c2cnccc2COC)c2c3cc(ccc31)-c1cccc(c1)C[C@H](NC(=O)[C@H](C(C)C)N(C)C(=O)CCN=C=NCc1c(OC)cccc1OC)C(=O)N1CCC[C@H](N1)C(=O)OCC(C)(C)C2 [Example 75]
100 to 1000 nM

Quick one: CCn1c(-c2cnccc2COC)c2c3cc(ccc31)-c1cccc(c1)C[C@H](NC(=O)[C@H](C(C)C)N(C)C(=O)CCN=C=Nc1ccccc1COC)C(=O)N1CCC[C@H](N1)C(=O)OCC(C)(C)C2 [Example 63]
1000 to 10000 nM

Quick one: CCn1c(-c2cnccc2COC)c2c3cc(ccc31)-c1cc(O)cc(c1)C[C@H](NC(=O)[C@@H](CCNC1=NCCO1)C(C)C)C(=O)N1CCC[C@H](N1)C(=O)OCC(C)(C)C2 [Example 30]
> 10000 nM

Quick one: CCn1c(-c2cnccc2COC)c2c3cc(ccc31)-c1cc(O)cc(c1)C[C@H](NC(=O)[C@H](C(C)C)N(C)C(=O)CN1C(=O)[C@H]3N[C@H]3C1=O)C(=O)N1CCC[C@H](N1)C(=O)OCC(C)(C)C2 [Example 98]
1000 to 10000 nM

Quick one: CCn1c(-c2cnccc2COC)c2c3cc(ccc31)-c1cc(O)cc(c1)C[C@H](NC(=O)[C@H](C(C)C)N(C)C(=O)CCN(C)C(=O)[C@@H]1CN1)C(=O)N1CCC[C@H](N1)C(=O)OCC(C)(C)C2 [Example 40]
100 to 1000 nM

Quick one: CCn1c(-c2cnccc2COC)c2c3cc(ccc31)-c1cc(O)cc(c1)C[C@H](NC(=O)[C@H](C(C)C)N(C)C(=O)C1CCN(C(=O)[C@@H]3CN3)CC1)C(=O)N1CCC[C@H](N1)C(=O)OCC(C)(C)C2 [Example 4]
100 to 1000 nM
